Data origin: ChEMBL document CHEMBL4689842

- System: Fibroblast
- PROTOCOL DESCRIPTION: Multiplex assay against human fibroblast
- Format: toxicity, cell-based
- EXPERIMENTAL PARAMETERS: 24 h, 10 µM, compound concentration 10 uM, replicate 1

| COMPOUND | Population Healthy Nuclei (%) |
| --- | --- |
| Cl.Cn1c2c(c3ccc(Cl)c(Cl)c31)C(C#N)C1(CCNCC1)NC2=O (stereo not given) | 55 |
| CC(/C=C1\SC(=S)N(CCCC(=O)Nc2ccc(C(=O)O)c(O)c2)C1=O)=C\c1ccccc1 | 45 |
| CC(C)C[C@H](NC(=O)[C@H](Cc1ccccc1)NC(=O)CNC(=O)CNC(=O)[C@@H](N)Cc1ccc(O)cc1)C(=O)O | 52 |
| CCCc1cc(C)[nH]c(=O)c1CNC(=O)c1cc(-c2ccc(N3CCN(C(C)C)CC3)nc2)cc2c1cnn2C(C)C | 43 |
| C=CC(=O)Nc1cc(-n2c(=O)ccc3cnc4ccc(-c5ccc(NS(C)(=O)=O)cc5)cc4c32)ccc1C | 39 |

----------
- Test system: U2OS
- PROTOCOL DESCRIPTION: Multiplex assay against U2OS
- Format: toxicity, cell-based
- EXPERIMENTAL PARAMETERS: human, 12 h, 10 µM, compound concentration 10 uM, replicate 1
RECORDED METRIC: Population Membrane Permeable-Phenotype (%)

| COMPOUND | RECORDED MEASUREMENT |
| --- | --- |
| CC[C@H](Nc1ncnc2[nH]cnc12)c1nc2cccc(F)c2c(=O)n1-c1ccccc1 | 4% |
| Cl.Cn1c2c(c3ccc(Cl)c(Cl)c31)C(C#N)C1(CCNCC1)NC2=O (centres undefined) | 53% |
| N#Cc1cccc(C(=O)Nc2cc(-c3ccccc3)nn2-c2ccccc2)c1 | 22% |
| Cc1c(Nc2ccc(S(=O)(=O)N3CCN(C)CC3)cc2F)nc2ccc(Nc3cnn(C4CC4)c3)cn2c1=O | 7% |

----------
List of Population Tubulin-Different-Phenotype (%) values.
- Test system: HEK-293T
- PROTOCOL DESCRIPTION: Multiplex assay against HEK293T;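 further: share of the cells with healthy nuclei that show this phenotype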
- Type: toxicity, cell-based
- EXPERIMENTAL PARAMETERS: human, 48 h, 10 µM, compound concentration 10 uM, replicate 2
RECORDED METRIC: Population Tubulin-Different-Phenotype (%)

| MOLECULE | TGT | RECORDED MEASUREMENT |
| --- | --- | --- |
| CC(C)c1cc(Nc2nc(N3CCC[C@H](N)C3)ncc2C(N)=O)cc(C(C)C)n1 | HEK-293T | 91 |
| CC(Cc1ccc(O)c(O)c1)C(C)Cc1ccc(O)c(O)c1 (stereo not drawn) [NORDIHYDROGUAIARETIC ACID] | HEK-293T | 1 |
| Cc1c(Nc2ccc(S(=O)(=O)N3CCN(C)CC3)cc2F)nc2ccc(-c3cnn(C4CC4)c3)cn2c1=O | HEK-293T | 69 |

----------
Some compounds, each annotated with its measured Population Pyknosed Nuclei (%).
- Tested on: U2OS
- PROTOCOL DESCRIPTION: Multiplex assay against U2OS
- Assay type: toxicity, cell-based
- EXPERIMENTAL PARAMETERS: human, 24 h, 1 µM, compound concentration 1 uM, replicate 2
RECORDED METRIC: Population Pyknosed Nuclei (%)

| COMPOUND | RECORDED MEASUREMENT |
| --- | --- |
| CN(c1cc(C(F)(F)F)nc(OCCC(=O)O)n1)c1cccc2c1CCC2 | 0 |
| CCCc1cc(C)[nH]c(=O)c1CNC(=O)c1cc(-c2ccc(N3CCN(C(C)C)CC3)nc2)cc2c1cnn2C(C)C | 27 |
| Cc1c(Nc2ccc(S(=O)(=O)N3CCN(C)CC3)cc2F)nc2ccc(Nc3cnn(C4CC4)c3)cn2c1=O | 6 |
| Cc1ccc(S(=O)(=O)NC2c3ccccc3Oc3ccccc32)cc1 | 6 |
| Cc1ccc(NC(=O)Nc2cc(C(F)(F)F)ccc2F)cc1Nc1ccc2c(c1)NC(=O)/C2=C\c1ccc[nH]1 | 23 |
| CC(C)c1cc(Nc2nc(N3CCC[C@H](N)C3)ncc2C(N)=O)cc(C(C)C)n1 | 20 |
| CC[C@H](Nc1ncnc2[nH]cnc12)c1nc2cccc(F)c2c(=O)n1-c1ccccc1 | 13 |
| CC(Cc1ccc(O)c(O)c1)C(C)Cc1ccc(O)c(O)c1 (centres undefined) [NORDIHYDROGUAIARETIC ACID] | 2 |
| Cl.NC[C@@H]1O[C@H](C23CC4CC(CC(C4)C2)C3)Cc2c1ccc(O)c2O | 6 |

----------
- Test system: U2OS
- PROTOCOL DESCRIPTION: Multiplex assay against U2OS
- Assay type: toxicity, cell-based
- EXPERIMENTAL PARAMETERS: human, 24 h, 10 µM, compound concentration 10 uM, replicate 1
RECORDED METRIC: Population Fragmented Nuclei (%)

| COMPOUND | RECORDED METRIC | RECORDED MEASUREMENT |
| --- | --- | --- |
| Cc1ccc(NC(=O)Nc2cc(C(F)(F)F)ccc2F)cc1Nc1ccc2c(c1)NC(=O)/C2=C\c1ccc[nH]1 | Population Fragmented Nuclei (%) | 2 |
| CCCCN(CC)c1nc(C)nc2c1c(C)cn2-c1c(C)cc(C)cc1C.Cl | Population Fragmented Nuclei (%) | 19 |
| CC(C)c1cc(Nc2nc(N3CCC[C@H](N)C3)ncc2C(N)=O)cc(C(C)C)n1 | Population Fragmented Nuclei (%) | 32 |
| Cc1c(Nc2ccc(S(=O)(=O)N3CCN(C)CC3)cc2F)nc2ccc(Nc3cnn(C4CC4)c3)cn2c1=O | Population Fragmented Nuclei (%) | 3 |
| CC[C@@H]1C(=O)N(C)c2cnc(Nc3ccc(C(=O)NC4CCN(C)CC4)cc3OC)nc2N1C1CCCC1 | Population Fragmented Nuclei (%) | 18 |
| Oc1cccc(-c2nc(N3CCOCC3)c3oc4ncccc4c3n2)c1 | Population Fragmented Nuclei (%) | 25 |
| CC(/C=C1\SC(=S)N(CCCC(=O)Nc2ccc(C(=O)O)c(O)c2)C1=O)=C\c1ccccc1 | Population Fragmented Nuclei (%) | 11 |
| CCCc1cc(C)[nH]c(=O)c1CNC(=O)c1cc(-c2ccc(N3CCN(C(C)C)CC3)nc2)cc2c1cnn2C(C)C | Population Fragmented Nuclei (%) | 23 |
| CCCCCNC(=N)N/N=C/c1c[nH]c2ccc(OC)cc12.O=C(O)/C=C\C(=O)O [TEGASEROD MALEATE] | Population Fragmented Nuclei (%) | 42 |

----------
- System: U2OS
- PROTOCOL DESCRIPTION: Multiplex assay against U2OS
- Assay type: toxicity, cell-based
- EXPERIMENTAL PARAMETERS: human, 24 h, 1 µM, compound concentration 1 uM, replicate 2
Quick reference for Total Cell Count among some molecules

| MOLECULE | Total Cell Count |
| --- | --- |
| CCCc1cc(C)[nH]c(=O)c1CNC(=O)c1cc(-c2ccc(N3CCN(C(C)C)CC3)nc2)cc2c1cnn2C(C)C | 53 |
| Cc1c(Nc2ccc(S(=O)(=O)N3CCN(C)CC3)cc2F)nc2ccc(-c3cnn(C4CC4)c3)cn2c1=O | 122 |
| Cc1ccc(NC(=O)Nc2cc(C(F)(F)F)ccc2F)cc1Nc1ccc2c(c1)NC(=O)/C2=C\c1ccc[nH]1 | 118 |
| Cl.Cn1c2c(c3ccc(Cl)c(Cl)c31)C(C#N)C1(CCNCC1)NC2=O (stereo not given) | 157 |
| CN(c1cc(C(F)(F)F)nc(OCCC(=O)O)n1)c1cccc2c1CCC2 | 68 |
| Cc1c(P(=S)(c2ccccc2)c2ccccc2)n2ccccc2[n+]1C/C=C/c1ccccc1.[Br-] | 124 |
| CCOc1ccn(-c2ccc(F)cc2)c(=O)c1C(=O)Nc1ccc(Oc2ccnc(N)c2Cl)c(F)c1 [BMS-777607] | 101 |
| CC(C)C[C@H](NC(=O)[C@H](Cc1ccccc1)NC(=O)CNC(=O)CNC(=O)[C@@H](N)Cc1ccc(O)cc1)C(=O)O [ENKEPHALIN] | 68 |
| C=CC(=O)Nc1cc(-n2c(=O)ccc3cnc4ccc(-c5ccc(NS(C)(=O)=O)cc5)cc4c32)ccc1C | 79 |
| Oc1cccc(-c2nc(N3CCOCC3)c3oc4ncccc4c3n2)c1 [PI-103] | 73 |
| CCCCN(CC)c1nc(C)nc2c1c(C)cn2-c1c(C)cc(C)cc1C.Cl | 116 |
| NC(=O)c1ccc2nc(-c3ccc(C4(N)CCC4)cc3)c(-c3ccccc3)n2n1 [BAY-1125976] | 124 |
| Cc1c(Nc2ccc(S(=O)(=O)N3CCN(C)CC3)cc2F)nc2ccc(Nc3cnn(C4CC4)c3)cn2c1=O | 152 |
| Cl.NC[C@@H]1O[C@H](C23CC4CC(CC(C4)C2)C3)Cc2c1ccc(O)c2O | 114 |
